assay: Pharmacokinetic study of JTV519 in CD1 mice (UPLC-MS/MS); format: in vivo; conditions: plasma; ip 30 mg/kg; HCl salt in 20% HP-β-CD in saline; CD-1 mouse
MEASUREMENT NAME: Cmax

INSERT INTO results (compound_string, experimental_value) VALUES
  ('COc1ccc2c(c1)CN(C(=O)CCN1CCC(Cc3ccccc3)CC1)CCS2', '1810 ng/mL');

###

assay: Pharmacokinetic study of JTV519 in CD1 mice (UPLC-MS/MS); format: in vivo; settings: pancreas; ip 30 mg/kg; CD-1 mouse, n = 3
MEASUREMENT NAME: Cmax

INSERT INTO measurements (molecule, measurement_name, experimental_value) VALUES
  ('COc1ccc2c(c1)CN(C(=O)CCN1CCC(Cc3ccccc3)CC1)CCS2 [JTV519]', 'Cmax', '105 µg/mL');
